# System: Sil-15 cells containing a RARE driving a lacZ reporter
# ASSAY INFO: X-Gal-based RA reporter assay (genomic response)
# Assay type: cell-based
# COND: read-out: genomic response EC50 (±95% CI); Sil-15 reporter cells, overnight, 10^–6 to 10^–14 M
# reported pEC50; entries follow
Lab note: report pEC50 as minus log10 of the concentration in molar units, number only.

Example compounds with recorded pEC50:
{"COMPOUND": "COc1cc2c(cc1C#Cc1ccc(C(=O)O)cn1)C(C)(C)CCC2(C)C [Compound 27]", "TARGET ENTITY": "Sil-15 cells containing a RARE driving a lacZ reporter", "pEC50": 8.50}
{"COMPOUND": "COc1cc2c(cc1C#Cc1ncc(C(=O)O)cn1)C(C)(C)CCC2(C)C [Compound 29]", "TARGET ENTITY": "Sil-15 cells containing a RARE driving a lacZ reporter", "pEC50": 6.22}
{"COMPOUND": "COc1cc2c(cc1C#Cc1cc(F)c(C(=O)O)c(F)c1)C(C)(C)CCC2(C)C [Compound 22]", "TARGET ENTITY": "Sil-15 cells containing a RARE driving a lacZ reporter", "pEC50": 9.84}
{"COMPOUND": "Cc1cc2c(cc1C#Cc1ccc(C(=O)O)c(F)c1)C(C)(C)CCC2(C)C [Compound 17]", "TARGET ENTITY": "Sil-15 cells containing a RARE driving a lacZ reporter", "pEC50": 9.87}

Now turn to the next compound.
Problem: Recall the recorded pEC50 for CC1(C)CCC(C)(C)c2cc(C#Cc3ccc(C(=O)O)cc3)ccc21 [EC23, reference compound] with Sil-15 cells containing a RARE driving a lacZ reporter and state it.
Solution: 9.89
